Test system: HL-60(TB) leukemia
Assay: NCI tumour cell line growth inhibition, 48 h; in the data active means GI50 below about 0.43 µM; inactive means the rest
Pick one: active, inactive

COc1cccc2c1C(=O)c1c(O)c3c(c(O)c1C2=O)C[C@@](O)(C(=O)CO)C[C@@H]3OC1CC2C(OCN2CN2COC3C(C)OC(O[C@H]4C[C@](O)(C(=O)CO)Cc5c(O)c6c(c(O)c54)C(=O)c4c(OC)cccc4C6=O)CC32)C(C)O1 (some centres undefined) : active
O=C1C=CC(=O)N1c1ccc2ccccc2c1 : inactive
COc1cccc(C2=C(c3cn(C)c4c(C)cccc34)C(=O)NC2=O)c1 : inactive

From here, focus on the item given below.
What was the test verdict on Nc1ncnc2occ(-c3ccc(NC(=O)Nc4cccc(C(F)(F)F)c4)cc3)c12 ?
inactive
